# Tested on: Radical scavenging activity
# procedure_summary: Antioxidant activity assessed as DPPH free radical scavenging activity after 15 mins by spectrophotometric analysis
# Assay type: functional
measured_endpoint: IC50 (µg/mL)

// known answers, use as guide
Value of IC50 reported for the compound COc1cc(OC)c(-c2cc(=O)c3cc(O)ccc3o2)cc1OC is 4.487

Value of IC50 reported for the compound COc1cc(OC)c(OC)cc1/C=C/C(=O)c1ccc(-n2ccnc2)cc1 is 4.757

Value of IC50 reported for the compound COc1cc(OC)c(-c2cc(=O)c3ccc(O)cc3o2)cc1OC is 4.808

I: COc1cc(OC)c(C2CC(=O)c3cc(O)ccc3O2)cc1OC (stereo unspecified)
II: O=C1O[C@H]([C@@H](O)CO)C(O)=C1O
Lookup: // pick min by IC50: I , II Identify your pick by its label.
Found: II
(II: 3.039 µg/mL, I: 4.566 µg/mL)

====

IC50 listing for selected compounds.
# System: SW982
# procedure_summary: Cytotoxicity against human SW982 cells assessed as growth inhibition after 72 hrs by MTT assay
# Format: functional, cell-based
# test_conditions: SW982, 72 h
Hi! Could you send only the number? It should be in µM, unit omitted.

// known answers, use as guide
Value of IC50 reported for the compound COc1cc(OC)c(OC)cc1/C=C/C(=O)c1ccc(Cl)c([N+](=O)[O-])c1 is 20.6

Value of IC50 reported for the compound COc1cc(OC)c(OC)cc1/C=C/C(=O)c1ccc(F)cc1 is 32.5

Value of IC50 reported for the compound COc1cc(OC)c(OC)cc1/C=C/C(=O)c1cccc([N+](=O)[O-])c1 is 101

// moving on: another record for IC50
Value of IC50 reported for the compound COc1cc(OC)c(OC)cc1/C=C/C(=O)c1ccc(O)cc1 is 155

====

# System: Radical scavenging activity
# procedure_summary: Antioxidant activity assessed as DPPH free radical scavenging activity after 15 mins by spectrophotometric analysis
# Assay type: functional
measured_endpoint: IC50 (µg/mL)

// known answers, use as guide
Value of IC50 reported for the compound COc1cc(OC)c(OC)cc1/C=C/C(=O)c1cccc([N+](=O)[O-])c1 is 4.309

Value of IC50 reported for the compound COc1cc(OC)c(OC)cc1/C=C/C(=O)c1ccc(N2CCOCC2)cc1 is 4.269

A: COc1cc(OC)c(OC)cc1/C=C/C(=O)c1ccc(Cl)cc1
B: COc1cc(OC)c(OC)cc1/C=C/C(=O)c1cc(O)ccc1O
Lookup: # argmax over IC50 for candidates A and B Identify your pick by its label.
Found: A
(A: 4.593 µg/mL, B: 2.653 µg/mL)

====

# procedure_summary: Antioxidant activity assessed as nitric oxide scavenging activity after 2.5 hrs by Griess assay
# Type: functional
measured_endpoint: IC50 (µg/mL)

Value of IC50 reported for the compound COc1cc(C(=O)/C=C/c2cc(OC)c(OC)cc2OC)ccc1O is 2.462

Value of IC50 reported for the compound COc1cc(OC)c(OC)cc1/C=C/C(=O)c1ccc(N2CCOCC2)cc1 is 2.078

Value of IC50 reported for the compound COc1cc(OC)c(-c2cc(=O)c3cc(O)ccc3o2)cc1OC is 2.142

Value of IC50 reported for the compound COc1cc(OC)c(OC)cc1/C=C/C(=O)c1ccc(Cl)c([N+](=O)[O-])c1 is 1.99

Value of IC50 reported for the compound COc1cc(OC)c(OC)cc1/C=C/C(=O)c1ccc(Cl)cc1 is 2.014

Value of IC50 reported for the compound COc1cc(OC)c(OC)cc1/C=C/C(=O)c1ccc([N+](=O)[O-])cc1 is 1.982
